Data provenance: patent US20210238260

SYSTEM: Factor X, P00742
Sequence (P00742 whole entry, looked up): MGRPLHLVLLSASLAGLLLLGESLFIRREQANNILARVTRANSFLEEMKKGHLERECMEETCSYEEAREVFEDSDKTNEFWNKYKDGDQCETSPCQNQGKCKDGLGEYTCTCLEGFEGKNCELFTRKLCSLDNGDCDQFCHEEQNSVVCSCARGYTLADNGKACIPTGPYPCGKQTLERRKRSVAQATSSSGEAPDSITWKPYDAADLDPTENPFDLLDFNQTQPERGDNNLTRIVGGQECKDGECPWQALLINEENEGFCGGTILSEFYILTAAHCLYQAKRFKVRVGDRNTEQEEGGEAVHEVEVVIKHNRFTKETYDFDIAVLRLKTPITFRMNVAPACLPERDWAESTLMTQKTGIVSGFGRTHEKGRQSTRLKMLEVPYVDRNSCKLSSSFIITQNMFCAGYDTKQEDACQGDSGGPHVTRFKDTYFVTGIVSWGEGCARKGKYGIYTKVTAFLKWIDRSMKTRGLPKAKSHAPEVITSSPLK
MEASURED_QUANTITY: kcat (s⁻¹)

- PROTEIN: "FIXa-R318Y/R338E/T343R/R403E (protein) chain 1: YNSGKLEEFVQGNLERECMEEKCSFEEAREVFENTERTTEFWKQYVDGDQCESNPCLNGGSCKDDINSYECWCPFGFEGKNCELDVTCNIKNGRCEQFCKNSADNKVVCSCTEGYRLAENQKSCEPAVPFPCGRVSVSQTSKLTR chain 2: VVGGEDAKPGQFPWQVVLNGKVDAFCGGSIVNEKWIVTAAHCVETGVKITVVAGEHNIEETEHTEQKRNVIRIIPHHNYNAAINKYNHDIALLELDEPLVLNSYVTPICIADKEYTNIFLKFGSGYVSGWGRVFHKGYSALVLQYLRVPLVDRATCLESTKFRIYNNMFCAGFHEGGRDSCQGDSGGPHVTEVEGTSFLTGIISWGEECAMKGKYGIYTKVSEYVNWIKEKTKLT"
  MEAS_VALUE: 6.7
- PROTEIN: "FIXa-Y155F/N260S/R318Y/R338E/R403E/E410N (protein) chain 1: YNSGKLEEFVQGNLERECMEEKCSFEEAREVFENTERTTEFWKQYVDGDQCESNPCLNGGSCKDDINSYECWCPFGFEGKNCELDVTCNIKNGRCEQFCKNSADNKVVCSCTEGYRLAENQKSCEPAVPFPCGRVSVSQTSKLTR chain 2: VVGGEDAKPGQFPWQVVLNGKVDAFCGGSIVNEKWIVTAAHCVETGVKITVVAGEHNIEETEHTEQKRNVIRIIPHHNYSAAINKYNHDIALLELDEPLVLNSYVTPICIADKEYTNIFLKFGSGYVSGWGRVFHKGYSALVLQYLRVPLVDRATCLESTKFTIYNNMFCAGFHEGGRDSCQGDSGGPHVTEVEGTSFLTGIISWGEECAMKGKYGIYTKVSEYVNWIKNKTKLT"
  MEAS_VALUE: 5.8
- PROTEIN: "FIXa-Y155F/N260S/R338E/T343R/R403E (protein) chain 1: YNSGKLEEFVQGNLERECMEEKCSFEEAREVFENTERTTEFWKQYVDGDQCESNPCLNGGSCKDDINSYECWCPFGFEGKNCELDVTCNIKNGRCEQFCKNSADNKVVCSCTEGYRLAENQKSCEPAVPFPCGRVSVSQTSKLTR chain 2: VVGGEDAKPGQFPWQVVLNGKVDAFCGGSIVNEKWIVTAAHCVETGVKITVVAGEHNIEETEHTEQKRNVIRIIPHHNYSAAINKYNHDIALLELDEPLVLNSYVTPICIADKEYTNIFLKFGSGYVSGWGRVFHKGRSALVLQYLRVPLVDRATCLESTKFRIYNNMFCAGFHEGGRDSCQGDSGGPHVTEVEGTSFLTGIISWGEECAMKGKYGIYTKVSEYVNWIKEKTKLT"
  MEAS_VALUE: 6.4
- PROTEIN: "FIXa-K247N/N249S/R338E/T343R/R403E/E410N (protein) chain 1: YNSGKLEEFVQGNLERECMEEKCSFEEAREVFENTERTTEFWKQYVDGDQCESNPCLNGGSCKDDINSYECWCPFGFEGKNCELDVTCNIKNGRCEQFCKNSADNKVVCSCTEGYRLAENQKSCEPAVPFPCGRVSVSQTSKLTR chain 2: VVGGEDAKPGQFPWQVVLNGKVDAFCGGSIVNEKWIVTAAHCVETGVKITVVAGEHNIEETEHTEQNRSVIRIIPHHNYNAAINKYNHDIALLELDEPLVLNSYVTPICIADKEYTNIFLKFGSGYVSGWGRVFHKGRSALVLQYLRVPLVDRATCLESTKFRIYNNMFCAGFHEGGRDSCQGDSGGPHVTEVEGTSFLTGIISWGEECAMKGKYGIYTKVSEYVNWIKNKTKLT"
  MEAS_VALUE: 10.8
